Reported Ki is given for each of the following compounds.
- TARGET_OR_SYSTEM: Retinoic acid receptor beta (Homo sapiens, UniProt P10826)
- Sequence (P10826 whole entry): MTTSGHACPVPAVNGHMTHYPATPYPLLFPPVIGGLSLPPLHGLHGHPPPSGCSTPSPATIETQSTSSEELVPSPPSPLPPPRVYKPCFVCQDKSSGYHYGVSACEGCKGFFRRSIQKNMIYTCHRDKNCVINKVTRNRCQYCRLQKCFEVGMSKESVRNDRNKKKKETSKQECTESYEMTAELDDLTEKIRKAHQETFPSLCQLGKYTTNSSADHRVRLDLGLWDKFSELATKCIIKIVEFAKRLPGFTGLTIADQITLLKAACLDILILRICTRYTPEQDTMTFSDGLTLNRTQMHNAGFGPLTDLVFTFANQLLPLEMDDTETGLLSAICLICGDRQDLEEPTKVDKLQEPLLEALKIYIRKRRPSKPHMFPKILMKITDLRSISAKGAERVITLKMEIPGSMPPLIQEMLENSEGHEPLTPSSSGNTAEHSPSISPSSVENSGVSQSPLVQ
- EXPERIMENT: Binding affinity against RAR beta receptor using [3H]ATRA as radioligand in CV-1 cells

| TEST_SMILES | SCALE_UNIT | QUALIFIER_OPERATOR | Ki |
| --- | --- | --- | --- |
| CCCOc1c(\C(C)=C/C=C/C(C)=C/C(=O)O)cc(C(F)(F)C(F)(F)F)cc1C(C)C | µM | = | 1.98 |
| CCOc1c(\C(C)=C/C=C/C(C)=C/C(=O)O)cc(C(F)(F)C(F)(F)F)cc1C(C)C | µM | > | 10 |
| CCCCOc1c(\C(C)=C(F)/C=C/C(C)=C/C(=O)O)cc(C(C)C)cc1C(C)C | µM | = | 4.62 |
| C/C(=C/C=C/C(C)=C/C(=O)O)c1cc(-c2ccccc2F)cc(C(C)C)c1OCC(F)F | µM | = | 3.93 |
| CCCOc1c(\C(C)=C/C=C/C(C)=C/C(=O)O)cc(C(C)C)cc1C(F)(F)C(F)(F)F | µM | > | 10 |
| C/C(=C/C=C/C(C)=C/C(=O)O)c1cc(-c2ccc(F)cc2)cc(C(C)C)c1OCC(F)F | µM | = | 2.11 |
| C/C(=C/C=C/C(C)=C/C(=O)O)c1cc(C(C)C)cc(-c2ccccc2)c1OCC(F)F | µM | = | 2.61 |
| CCCCOc1c(\C(C)=C/C=C/C(C)=C/C(=O)O)cc(C(F)(F)C(F)(F)F)cc1C(C)C | µM | = | 2.27 |
| CC(/C=C/C(F)=C(/C)c1cc(C(C)(C)C)cc(C(C)(C)C)c1OCC(F)(F)F)=C\C(=O)O | µM | = | 6.01 |
| CCC(C)(C)c1cc(\C(C)=C(F)/C=C/C(C)=C/C(=O)O)c(OCC(F)F)c(C(C)(C)CC)c1 | µM | = | 5.33 |
| C/C(=C/C=C/C(C)=C/C(=O)O)c1cc(-c2cc(F)cc(F)c2)cc(C(C)C)c1OCC(F)F | µM | = | 1.96 |
| CC(/C=C/C(F)=C(/C)c1cc(C(C)(C)C)cc(C(C)(C)C)c1OCC(F)F)=C\C(=O)O | µM | = | 5.68 |
| C/C(=C/C=C/C(C)=C/C(=O)O)c1cc(-c2cccs2)cc(C(C)C)c1OCC(F)F | µM | = | 2.11 |
| C/C(=C/C=C/C(C)=C/C(=O)O)c1cc(-c2cccc(F)c2)cc(C(C)C)c1OCC(F)F | µM | = | 3.6 |
| C/C(=C/C=C/C(C)=C/C(=O)O)c1cc(C(C)(C)C)cc(C(C)(C)C)c1OCC(F)F | µM | = | 9.51 |

###

Reported pKi is given for each of the following compounds.
- TARGET_OR_SYSTEM: Retinoic acid receptor RXR-gamma (Homo sapiens, UniProt P48443)
- Sequence (P48443 whole entry): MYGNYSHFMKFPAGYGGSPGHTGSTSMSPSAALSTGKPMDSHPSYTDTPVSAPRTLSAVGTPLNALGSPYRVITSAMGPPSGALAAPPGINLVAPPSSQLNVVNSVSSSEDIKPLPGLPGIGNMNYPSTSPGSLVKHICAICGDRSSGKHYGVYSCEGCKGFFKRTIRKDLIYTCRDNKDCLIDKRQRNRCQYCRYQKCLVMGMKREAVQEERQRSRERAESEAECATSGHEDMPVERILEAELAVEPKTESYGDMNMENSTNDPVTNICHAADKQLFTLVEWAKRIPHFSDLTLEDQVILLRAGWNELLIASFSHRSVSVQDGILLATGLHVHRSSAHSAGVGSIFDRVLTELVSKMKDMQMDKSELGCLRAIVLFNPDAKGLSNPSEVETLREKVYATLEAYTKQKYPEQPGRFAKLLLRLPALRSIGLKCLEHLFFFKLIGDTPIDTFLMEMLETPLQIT
- EXPERIMENT: Binding affinity against RXR gamma receptor using [3H]9-cis-RA as radioligand in CV-1 cells
pKi: −log10 of the molar value.

| TEST_SMILES | TARGET_OR_SYSTEM | pKi |
| --- | --- | --- |
| Cc1cc2c(cc1C1(c3ccc(C(=O)O)cn3)CC1)C(C)(C)CCC2(C)C | Retinoic acid receptor RXR-gamma (Homo sapiens, UniProt P48443) | 7.92 |
| CCC(C)(C)c1cc(\C(C)=C(F)/C=C/C(C)=C/C(=O)O)c(OCC(F)F)c(C(C)(C)CC)c1 | Retinoic acid receptor RXR-gamma (Homo sapiens, UniProt P48443) | 7.39 |
| CCCCOc1c(\C(C)=C/C=C/C(C)=C/C(=O)O)cc(C(F)(F)C(F)(F)F)cc1C(C)C | Retinoic acid receptor RXR-gamma (Homo sapiens, UniProt P48443) | 7.34 |
| C/C(=C/C=C/C(C)=C/C(=O)O)c1cc(-c2cccc(F)c2)cc(C(C)C)c1OCC(F)F | Retinoic acid receptor RXR-gamma (Homo sapiens, UniProt P48443) | 8.54 |
| C/C(=C/C=C/C(C)=C/C(=O)O)c1cc(-c2cccs2)cc(C(C)C)c1OCC(F)F | Retinoic acid receptor RXR-gamma (Homo sapiens, UniProt P48443) | 8.25 |
| C/C(=C/C=C/C(C)=C/C(=O)O)c1cc(C(C)C)cc(-c2ccccc2)c1OCC(F)F | Retinoic acid receptor RXR-gamma (Homo sapiens, UniProt P48443) | 7.65 |
| C/C(=C/C=C/C(C)=C/C(=O)O)c1cc(-c2ccc(F)cc2)cc(C(C)C)c1OCC(F)F | Retinoic acid receptor RXR-gamma (Homo sapiens, UniProt P48443) | 8.25 |
| C/C(=C/C=C/C(C)=C/C(=O)O)c1cc(-c2cc(F)cc(F)c2)cc(C(C)C)c1OCC(F)F | Retinoic acid receptor RXR-gamma (Homo sapiens, UniProt P48443) | 8.55 |
| CC(/C=C/C(F)=C(/C)c1cc(C(C)(C)C)cc(C(C)(C)C)c1OCC(F)(F)F)=C\C(=O)O | Retinoic acid receptor RXR-gamma (Homo sapiens, UniProt P48443) | 7.91 |

###

Ki tested on Retinoic acid receptor RXR-alpha (Homo sapiens, UniProt P19793): recorded values
Sequence (P19793 whole entry): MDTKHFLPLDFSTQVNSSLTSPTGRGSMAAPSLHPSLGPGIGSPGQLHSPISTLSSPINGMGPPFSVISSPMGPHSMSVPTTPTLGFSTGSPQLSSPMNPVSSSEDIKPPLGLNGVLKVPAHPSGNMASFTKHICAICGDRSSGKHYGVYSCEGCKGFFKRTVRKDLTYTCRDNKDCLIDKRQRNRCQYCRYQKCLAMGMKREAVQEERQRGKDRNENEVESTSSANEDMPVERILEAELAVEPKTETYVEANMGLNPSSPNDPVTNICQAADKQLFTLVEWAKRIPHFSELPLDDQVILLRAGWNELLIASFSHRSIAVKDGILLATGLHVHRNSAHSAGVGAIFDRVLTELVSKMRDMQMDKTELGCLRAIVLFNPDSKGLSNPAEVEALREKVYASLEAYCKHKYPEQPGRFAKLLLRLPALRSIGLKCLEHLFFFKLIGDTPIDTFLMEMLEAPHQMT

| TEST_SMILES | SCALE_UNIT | Ki |
| --- | --- | --- |
| C/C(=C/C=C/C(C)=C/C(=O)O)c1cc(-c2ccccc2F)cc(C(C)C)c1OCC(F)F | nM | 2.3 |
| CCCCOc1c(\C(C)=C(F)/C=C/C(C)=C/C(=O)O)cc(C(C)C)cc1C(C)C | nM | 4.4 |
| CC(/C=C/C(F)=C(/C)c1cc(C(C)(C)C)cc(C(C)(C)C)c1OCC(F)(F)F)=C\C(=O)O | nM | 4.1 |
| CCCOc1c(\C(C)=C/C=C/C(C)=C/C(=O)O)cc(C(C)C)cc1C(F)(F)C(F)(F)F | nM | 85.8 |
| C/C(=C/C=C/C(C)=C/C(=O)O)c1cc(-c2cccc(F)c2)cc(C(C)C)c1OCC(F)F | nM | 1 |
| CCC(C)(C)c1cc(\C(C)=C(F)/C=C/C(C)=C/C(=O)O)c(OCC(F)F)c(C(C)(C)CC)c1 | nM | 28.7 |
| C/C(=C/C=C/C(C)=C/C(=O)O)c1cc(-c2cccs2)cc(C(C)C)c1OCC(F)F | nM | 0.8 |
| C/C(=C/C=C/C(C)=C/C(=O)O)c1cc(-c2ccco2)cc(C(C)C)c1OCC(F)F | nM | 3 |
| CCOc1c(\C(C)=C/C=C/C(C)=C/C(=O)O)cc(C(F)(F)C(F)(F)F)cc1C(C)C | nM | 6.3 |

###

- TARGET_OR_SYSTEM: Retinoic acid receptor RXR-alpha (Homo sapiens, UniProt P19793)
- EXPERIMENT: In vitro antagonist activity against RXR alpha in CV-1 cells
MEASURED_ATTRIBUTE: IC50 (nM)

| TEST_SMILES | MEASURED_ATTRIBUTE | SCALE_UNIT | VALUE_REPORTED |
| --- | --- | --- | --- |
| C/C(=C/C=C/C(C)=C/C(=O)O)c1cc(-c2ccc(F)cc2)cc(C(C)C)c1OCC(F)F | IC50 | nM | 2.2 |
| C/C(=C/C=C/C(C)=C/C(=O)O)c1cc(-c2cccs2)cc(C(C)C)c1OCC(F)F | IC50 | nM | 1.9 |
| C/C(=C/C=C/C(C)=C/C(=O)O)c1cc(-c2cc(F)cc(F)c2)cc(C(C)C)c1OCC(F)F | IC50 | nM | 4.6 |
| C/C(=C/C=C/C(C)=C/C(=O)O)c1cc(C(C)C)cc(-c2ccccc2)c1OCC(F)F | IC50 | nM | 57.9 |
| C/C(=C/C=C/C(C)=C/C(=O)O)c1cc(-c2ccco2)cc(C(C)C)c1OCC(F)F | IC50 | nM | 3.6 |
| CCCCOc1c(\C(C)=C(F)/C=C/C(C)=C/C(=O)O)cc(C(C)C)cc1C(C)C | IC50 | nM | 4.7 |
| CCC(C)(C)c1cc(\C(C)=C(F)/C=C/C(C)=C/C(=O)O)c(OCC(F)F)c(C(C)(C)CC)c1 | IC50 | nM | 13.7 |
| CCCOc1c(\C(C)=C/C=C/C(C)=C/C(=O)O)cc(C(F)(F)C(F)(F)F)cc1C(C)C | IC50 | nM | 5.1 |
| C/C(=C/C=C/C(C)=C/C(=O)O)c1cc(-c2ccccc2F)cc(C(C)C)c1OCC(F)F | IC50 | nM | 3.1 |
| CC(/C=C/C(F)=C(/C)c1cc(C(C)(C)C)cc(C(C)(C)C)c1OCC(F)F)=C\C(=O)O | IC50 | nM | 6.8 |
| CCOc1c(\C(C)=C/C=C/C(C)=C/C(=O)O)cc(C(F)(F)C(F)(F)F)cc1C(C)C | IC50 | nM | 5.3 |
| CCCOc1c(\C(C)=C/C=C/C(C)=C/C(=O)O)cc(C(C)C)cc1C(F)(F)C(F)(F)F | IC50 | nM | 10.7 |
| CCCCOc1c(\C(C)=C/C=C/C(C)=C/C(=O)O)cc(C(F)(F)C(F)(F)F)cc1C(C)C | IC50 | nM | 4 |
| C/C(=C/C=C/C(C)=C/C(=O)O)c1cc(-c2cccc(F)c2)cc(C(C)C)c1OCC(F)F | IC50 | nM | 3.9 |
| CC(/C=C/C(F)=C(/C)c1cc(C(C)(C)C)cc(C(C)(C)C)c1OCC(F)(F)F)=C\C(=O)O | IC50 | nM | 7.2 |

Values from ChEMBL document CHEMBL1136440
